- Tested on: isolated rabbit thoracic aorta preparations
- Assay Notes: Vessel relaxation in isolated rabbit thoracic aorta preparations
- Run Conditions: Oryctolagus cuniculus; in vitro, rabbit aortic rings precontracted with noradrenaline (1 μM), functional endothelium
Measurement Name: EC50 (µM)
Return type: number; implicit unit µM.

Task: Requested field: EC50. Item: CCOc1nc2cccc(C(=O)OC(C)OC(=O)OCCC(C)CCO/N=[N+](\[O-])N(C)C(C)(C)C)c2n1Cc1ccc(-c2ccccc2-c2nnn[nH]2)cc1 (centres unmarked)
Output: 46
